Molecular target: EGFR (Homo sapiens (Human), UniProt P00533)
Sequence (P00533 25-1210): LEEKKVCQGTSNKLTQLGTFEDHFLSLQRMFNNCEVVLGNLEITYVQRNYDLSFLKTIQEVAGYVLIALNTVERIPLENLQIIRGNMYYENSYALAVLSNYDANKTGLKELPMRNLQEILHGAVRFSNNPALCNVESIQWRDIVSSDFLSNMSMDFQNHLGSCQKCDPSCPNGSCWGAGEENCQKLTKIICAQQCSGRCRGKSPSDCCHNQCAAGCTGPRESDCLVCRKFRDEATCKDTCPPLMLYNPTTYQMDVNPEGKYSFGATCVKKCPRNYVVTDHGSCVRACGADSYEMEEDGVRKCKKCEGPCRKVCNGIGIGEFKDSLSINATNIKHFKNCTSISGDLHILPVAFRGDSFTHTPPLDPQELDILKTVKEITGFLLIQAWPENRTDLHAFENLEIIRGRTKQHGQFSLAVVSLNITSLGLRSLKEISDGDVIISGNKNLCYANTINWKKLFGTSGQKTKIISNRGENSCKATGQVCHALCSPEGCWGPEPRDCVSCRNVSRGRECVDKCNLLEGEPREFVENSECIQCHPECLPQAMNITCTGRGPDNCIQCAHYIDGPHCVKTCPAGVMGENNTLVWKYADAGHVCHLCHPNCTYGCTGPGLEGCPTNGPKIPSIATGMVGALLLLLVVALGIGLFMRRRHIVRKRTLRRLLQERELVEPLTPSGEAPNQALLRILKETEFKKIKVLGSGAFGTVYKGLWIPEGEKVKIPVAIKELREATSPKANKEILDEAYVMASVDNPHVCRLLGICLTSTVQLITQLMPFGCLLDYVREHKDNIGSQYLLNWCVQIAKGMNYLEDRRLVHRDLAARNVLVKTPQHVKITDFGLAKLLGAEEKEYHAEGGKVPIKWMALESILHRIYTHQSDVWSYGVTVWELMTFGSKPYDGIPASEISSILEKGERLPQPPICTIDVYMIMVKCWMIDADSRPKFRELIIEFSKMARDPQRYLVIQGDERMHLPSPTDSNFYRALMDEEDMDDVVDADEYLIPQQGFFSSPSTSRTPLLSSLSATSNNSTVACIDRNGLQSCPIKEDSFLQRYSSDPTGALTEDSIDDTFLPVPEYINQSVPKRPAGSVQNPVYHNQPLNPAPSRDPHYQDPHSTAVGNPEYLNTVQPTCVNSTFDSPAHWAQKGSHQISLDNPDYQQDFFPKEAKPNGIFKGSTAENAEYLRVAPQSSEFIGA
Test: HTRF KinEASE-TK kinase assay, EGFR
Type: biochemical
Conditions: 10 μM compound, 3 h preincubation; read-out: % EGFR Remaining activity vs DMSO (10 μM, 3 h)
Description: Kinase activity was monitored using a HTRF® KinEASE-TK kit from Cisbio (62TK0PEC). The buffer used was 1× kinase buffer supplemented with 2 mM MnCl2, 5 mM MgCl2, 1 mM TCEP and 100× diluted Supplementary Enzyme Buffer. EGFR was purchased from Promega. […] Reaction with substrate was then initiated by adding biotinylated substrate and ATP. […] After 60 min of incubation, the fluorescence emission was measured at 620 nm and 665 nm. […]
endpoint: remaining activity at 10 µM

* CN(C)S(=O)(=O)c1c(F)c(F)c(F)c(F)c1C(=O)NCCn1nc(-c2ccc(Oc3ccccc3)cc2)c2c(N)ncnc21 | < 50%
* CN(C)S(=O)(=O)c1c(F)c(F)c(F)c(F)c1C(=O)N1CC(n2nc(-c3ccc(Oc4ccccc4)cc3)c3c(N)ncnc32)C1 | < 50%
* CS(=O)(=O)c1c(F)c(F)c(F)c(F)c1Nc1cc2c(Nc3ccc(F)c(Cl)c3)ncnc2cc1O[C@H]1CCOC1 | < 50%
* NS(=O)(=O)c1c(F)c(F)c(F)c(F)c1C(=O)NCCNc1ncnc2[nH]ccc12 | > 90%
* Nc1ncnc2c1c(-c1ccc(Oc3ccccc3)cc1)nn2CCNS(=O)(=O)c1c(F)c(F)c(F)c(F)c1C(F)F | < 50%
* COCCOc1ccc(Nc2ncc(F)c(NCCCNS(=O)(=O)c3c(F)c(F)c(F)c(F)c3OC(F)F)n2)cc1 | > 90%
* Nc1ncnc2c1c(-c1ccc(Oc3ccccc3)cc1)nn2C1CCN(S(=O)(=O)c2c(F)c(F)c(F)c(F)c2OC(F)F)C1 (stereo in doubt) | 50 to 90%
* Nc1ncnc2c1c(-c1ccc(Oc3ccccc3)cc1)nn2CCCNC(=O)c1c(F)c(F)c(F)c(F)c1S(N)(=O)=O | < 50%
* COCCOc1ccc(Nc2ncc(F)c(Nc3cccc(NC(=O)c4c(F)c(F)c(F)c(F)c4S(=O)(=O)N(C)C)c3)n2)cc1 | > 90%
* CN(CCn1nc(-c2ccc(Oc3ccccc3)cc2)c2c(N)ncnc21)c1c(F)c(F)c(F)c(F)c1S(C)(=O)=O | 50 to 90%
* C[S@+]([O-])c1c(F)c(F)c(F)c(F)c1C(=O)Nc1ncnc2[nH]ccc12 (racemic) | > 90%
* COCCOc1ccc(Nc2ncc(F)c(Nc3cccc(NS(=O)(=O)c4c(F)c(F)c(F)c(F)c4CF)c3)n2)cc1 | > 90%
* Nc1ncnc2c1c(-c1ccc(Oc3ccccc3)cc1)nn2CCNC(=O)c1c(F)c(F)c(F)c(F)c1S(N)(=O)=O | < 50%

====

Molecular target: EGFR (Homo sapiens (Human), UniProt P00533)
Experiment: HTRF KinEASE-TK kinase assay, EGFR
Type: biochemical
Conditions: 1 μM compound, 3 h preincubation; read-out: % EGFR Remaining activity vs DMSO (1 μM, 3 h)
Below, each of the compounds is paired with its reported remaining activity at 1 µM value.
endpoint: remaining activity at 1 µM

* CN(C)S(=O)(=O)c1c(F)c(F)c(F)c(F)c1C(=O)NCCn1nc(-c2ccc(Oc3ccccc3)cc2)c2c(N)ncnc21 | < 50%
* COCCOc1ccc(Nc2ncc(F)c(Nc3cccc(NS(=O)(=O)c4c(F)c(F)c(F)c(F)c4C(F)(F)F)c3)n2)cc1 | 50 to 90%
* COCCOc1ccc(Nc2ncc(F)c(Nc3cccc(NS(=O)(=O)c4c(F)c(F)c(F)c(F)c4C(F)F)c3)n2)cc1 | > 90%

====

Below, each of the molecules is paired with its reported remaining activity at 10 µM value.
Molecular target: FGFR4 (Homo sapiens (Human))
Sequence (P22455 22-802): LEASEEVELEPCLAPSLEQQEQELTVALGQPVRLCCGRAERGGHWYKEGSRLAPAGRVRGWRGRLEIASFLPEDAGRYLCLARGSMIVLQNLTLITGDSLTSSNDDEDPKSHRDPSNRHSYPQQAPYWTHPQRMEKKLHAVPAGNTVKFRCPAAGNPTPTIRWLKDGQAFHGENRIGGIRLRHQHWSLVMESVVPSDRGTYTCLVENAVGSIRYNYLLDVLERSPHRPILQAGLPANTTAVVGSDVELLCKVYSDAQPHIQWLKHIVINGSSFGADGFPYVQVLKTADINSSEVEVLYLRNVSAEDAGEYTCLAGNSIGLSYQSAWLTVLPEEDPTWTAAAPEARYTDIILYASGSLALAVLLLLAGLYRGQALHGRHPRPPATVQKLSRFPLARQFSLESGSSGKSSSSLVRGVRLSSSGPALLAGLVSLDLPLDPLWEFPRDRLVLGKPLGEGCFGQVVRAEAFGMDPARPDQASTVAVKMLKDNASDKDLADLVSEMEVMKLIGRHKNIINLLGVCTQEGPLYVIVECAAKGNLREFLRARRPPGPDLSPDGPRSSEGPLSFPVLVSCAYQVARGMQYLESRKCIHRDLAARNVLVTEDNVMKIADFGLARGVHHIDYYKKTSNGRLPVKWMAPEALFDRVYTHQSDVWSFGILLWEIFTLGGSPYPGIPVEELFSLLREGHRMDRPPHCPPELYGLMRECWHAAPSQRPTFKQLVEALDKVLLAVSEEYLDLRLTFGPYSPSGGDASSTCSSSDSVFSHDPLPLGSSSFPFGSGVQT
Assay: HTRF KinEASE-TK kinase assay, FGFR4
Assay type: biochemical
Settings: read-out: % FGFR4 Remaining activity vs DMSO (10 μM, 3 h)
endpoint: remaining activity at 10 µM

- COCCOc1ccc(Nc2ncc(F)c(NCCCNS(=O)(=O)c3c(F)c(F)c(F)c(F)c3CF)n2)cc1: < 50%
- C[S@+]([O-])c1c(F)c(F)c(F)c(F)c1C(=O)N1CC(n2nc(-c3ccc(Oc4ccccc4)cc3)c3c(N)ncnc32)C1 (racemic): > 90%
- COCCOc1ccc(Nc2ncc(F)c(Nc3cccc(Nc4c(F)c(F)c(F)c(F)c4[S@+](C)[O-])c3)n2)cc1 (stereo in doubt): > 90%
- COCCOc1ccc(Nc2ncc(F)c(Nc3cccc(Nc4c(F)c(F)c(F)c(F)c4S(C)(=O)=O)c3)n2)cc1: < 50%
- CS(=O)(=O)c1c(F)c(F)c(F)c(F)c1C(=O)Nc1cc2c(Nc3ccc(F)c(Cl)c3)ncnc2cc1O[C@H]1CCOC1: > 90%
- COCCOc1ccc(Nc2ncc(F)c(Nc3cccc(NC(=O)c4c(F)c(F)c(F)c(F)c4S(=O)(=O)N(C)C)c3)n2)cc1: < 50%

====

Molecular target: EGFR (Homo sapiens (Human))
Test: HTRF KinEASE-TK kinase assay, EGFR
Assay type: biochemical
Conditions: 1 μM compound, 3 h preincubation; read-out: % EGFR Remaining activity vs DMSO (1 μM, 3 h)
Below, each of the molecules is paired with its reported remaining activity at 1 µM value.
endpoint: remaining activity at 1 µM

• CS(=O)(=O)c1c(F)c(F)c(F)c(F)c1C(=O)NCCNc1ncnc2[nH]ccc12 [Compound I-45] = > 90%
• C[S+]([O-])c1c(F)c(F)c(F)c(F)c1Nc1cc2c(Nc3ccc(F)c(Cl)c3)ncnc2cc1O[C@H]1CCOC1 (stereo partly drawn) [Compound I-4] = < 50%
• C[S@+]([O-])c1c(F)c(F)c(F)c(F)c1C(=O)Nc1ncnc2[nH]ccc12 (racemic) [Compound I-46] = > 90%
• COCCOc1ccc(Nc2ncc(F)c(Nc3cccc(NC(=O)c4c(F)c(F)c(F)c(F)c4[S@+](C)[O-])c3)n2)cc1 (stereo in doubt) [Compound I-62] = > 90%
• Nc1ncnc2c1c(-c1ccc(Oc3ccccc3)cc1)nn2[C@@H]1CCCN(C(=O)c2c(F)c(F)c(F)c(F)c2S(N)(=O)=O)C1 [Compound I-35] = > 90%
• O=S(=O)(Nc1cc2c(Nc3ccc(F)c(Cl)c3)ncnc2cc1O[C@H]1CCOC1)c1c(F)c(F)c(F)c(F)c1C(F)(F)F [Compound I-1] = < 50%

====

Molecular target: UniProtKB P51813
Sequence (P51813 whole entry): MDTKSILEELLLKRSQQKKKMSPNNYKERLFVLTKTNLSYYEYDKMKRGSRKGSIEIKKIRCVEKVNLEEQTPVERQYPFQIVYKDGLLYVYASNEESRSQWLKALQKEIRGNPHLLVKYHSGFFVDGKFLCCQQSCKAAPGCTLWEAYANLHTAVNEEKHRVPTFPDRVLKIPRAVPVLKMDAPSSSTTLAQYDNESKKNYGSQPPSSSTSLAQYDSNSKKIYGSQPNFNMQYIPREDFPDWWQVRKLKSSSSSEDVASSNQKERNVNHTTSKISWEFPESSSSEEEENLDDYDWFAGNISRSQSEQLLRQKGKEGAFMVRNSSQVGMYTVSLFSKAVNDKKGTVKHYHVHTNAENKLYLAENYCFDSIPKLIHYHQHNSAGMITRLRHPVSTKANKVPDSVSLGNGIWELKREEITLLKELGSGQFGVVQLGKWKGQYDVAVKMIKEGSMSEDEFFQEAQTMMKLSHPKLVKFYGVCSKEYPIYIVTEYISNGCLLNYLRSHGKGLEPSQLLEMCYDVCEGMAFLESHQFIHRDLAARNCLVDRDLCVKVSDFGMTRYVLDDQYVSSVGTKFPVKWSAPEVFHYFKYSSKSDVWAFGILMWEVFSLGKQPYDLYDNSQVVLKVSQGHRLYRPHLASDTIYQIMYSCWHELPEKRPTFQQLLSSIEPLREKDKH
Assay: HTRF KinEASE-TK kinase assay, BMX
Assay type: biochemical
Conditions: 1 uM compound, 3 h preincubation
endpoint: remaining activity at 1 µM

- C[S+]([O-])c1c(F)c(F)c(F)c(F)c1Nc1cc2c(Nc3ccc(F)c(Cl)c3)ncnc2cc1O[C@H]1CCOC1 (stereo partly drawn): > 90%
- COCCOc1ccc(Nc2ncc(F)c(Nc3cccc(NS(=O)(=O)c4c(F)c(F)c(F)c(F)c4CF)c3)n2)cc1: < 50%
- CS(=O)(=O)c1c(F)c(F)c(F)c(F)c1Nc1cc2c(Nc3ccc(F)c(Cl)c3)ncnc2cc1O[C@H]1CCOC1: 50 to 90%
- COc1c(F)c(F)c(F)c(F)c1S(=O)(=O)n1nc(-c2ccc(Oc3ccccc3)cc2)c2c(N)ncnc21: < 50%
- Nc1ncnc2c1c(-c1ccc(Oc3ccccc3)cc1)nn2C1CCN(S(=O)(=O)c2c(F)c(F)c(F)c(F)c2OC(F)F)C1 (stereo in doubt): < 50%
- Nc1ncnc2c1c(-c1ccc(Oc3ccccc3)cc1)nn2CCNS(=O)(=O)c1c(F)c(F)c(F)c(F)c1OCF: < 50%

====

Below, each of the compounds is paired with its reported remaining activity at 10 µM value.
Target: UniProtKB Q06187
Sequence (Q06187 whole entry): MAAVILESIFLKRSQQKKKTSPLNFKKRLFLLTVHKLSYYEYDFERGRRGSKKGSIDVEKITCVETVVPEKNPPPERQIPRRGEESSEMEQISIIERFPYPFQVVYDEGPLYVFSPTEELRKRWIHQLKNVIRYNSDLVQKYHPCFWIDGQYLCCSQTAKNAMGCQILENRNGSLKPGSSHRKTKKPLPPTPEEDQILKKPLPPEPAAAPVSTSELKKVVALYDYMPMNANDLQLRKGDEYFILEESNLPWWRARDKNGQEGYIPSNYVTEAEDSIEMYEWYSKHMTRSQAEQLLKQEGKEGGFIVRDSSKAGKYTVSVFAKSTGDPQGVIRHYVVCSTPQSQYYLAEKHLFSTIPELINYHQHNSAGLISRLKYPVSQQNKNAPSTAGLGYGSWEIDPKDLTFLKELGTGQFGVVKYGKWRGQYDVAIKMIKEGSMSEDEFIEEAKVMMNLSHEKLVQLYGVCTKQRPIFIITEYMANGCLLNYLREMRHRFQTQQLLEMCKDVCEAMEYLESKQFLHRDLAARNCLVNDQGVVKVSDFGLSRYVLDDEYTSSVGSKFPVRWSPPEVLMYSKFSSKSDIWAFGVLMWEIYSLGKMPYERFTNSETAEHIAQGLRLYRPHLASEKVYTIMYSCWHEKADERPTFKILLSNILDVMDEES
Assay: HTRF KinEASE-TK kinase assay, BTK
Type: biochemical
Conditions: 10 μM compound, 3 h preincubation; read-out: % BTK Remaining activity vs DMSO (10 μM, 3 h)
endpoint: remaining activity at 10 µM

• CS(=O)(=O)c1c(F)c(F)c(F)c(F)c1C(=O)NCCn1nc(-c2ccc(Oc3ccccc3)cc2)c2c(N)ncnc21 [Compound I-38] = < 50%
• CS(=O)(=O)c1c(F)c(F)c(F)c(F)c1Nc1cc2c(Nc3ccc(F)c(Cl)c3)ncnc2cc1O[C@H]1CCOC1 [Compound I-2] = 50 to 90%
• C[S@+]([O-])c1c(F)c(F)c(F)c(F)c1C(=O)N1CC(n2nc(-c3ccc(Oc4ccccc4)cc3)c3c(N)ncnc32)C1 (racemic) [Compound I-37] = < 50%
• CN(C)S(=O)(=O)c1c(F)c(F)c(F)c(F)c1C(=O)N1CC(n2nc(-c3ccc(Oc4ccccc4)cc3)c3c(N)ncnc32)C1 [Compound I-29] = < 50%
• COCCOc1ccc(Nc2ncc(F)c(Nc3cccc(NS(=O)(=O)c4c(F)c(F)c(F)c(F)c4C(F)F)c3)n2)cc1 [Compound I-51] = < 50%
• Nc1ncnc2c1c(-c1ccc(Oc3ccccc3)cc1)nn2CCNS(=O)(=O)c1c(F)c(F)c(F)c(F)c1C(F)F [Compound I-22] = < 50%
